Test system: HL-60(TB) leukemia
run_description: NCI-60 one-dose screen, 48 h
conditions: 10 µM unless noted
About 83,000 compounds went through this panel and 20% of them were active in at least one assay; those are over-represented in the sample as a whole. The source made the active and inactive calls. Rule for the calls: active = growth percent below 10; inactive = the rest.
Could you please pick one outcome from this set? active, inactive

Sample answers from the record:
N#Cc1c(-c2ccccc2)cc(-c2ccccc2)n(CC(=O)O)c1=O ... inactive
COc1ccc(OCC(O)CN2CCN(c3ccc(Cl)cc3)CC2)cc1 (centres undefined) ... inactive
CC(C)c1nc(N(C)S(C)(=O)=O)nc(-c2ccc(F)cc2)c1/C=C/C(=O)C[C@@H](O)CC(=O)O ... inactive
O=C(Nc1cccc2cccnc12)c1cc(C(=O)c2ccc(Cl)cc2)n2ccc(-c3ccncc3)cc12 ... inactive

[Q] Please state the recorded outcome for this molecule: O=C1c2ccccc2C(=O)N1c1ccccc1
[A] inactive

[Q] And the next one, N#Cc1cc(-c2nc3ccccc3s2)c(=O)n(NS(=O)(=O)c2ccccc2)c1N ?
[A] inactive

[Q] What do we get for O=C(Nc1cccc(-n2ccc3c(NC(=O)c4ccccc4)nccc32)c1)Nc1ccc(Cl)c(C(F)(F)F)c1 ?
[A] active

[Q] Queued: CN1CCN(C(=S)S)CC1
[A] inactive

[Q] And what about the molecule COc1ccc(-c2nc3sccn3c2-c2cc(-c3cc(OC)c(OC)c(OC)c3)on2)cc1 ?
[A] inactive

====

System: HL-60(TB) leukemia
run_description: NCI-60 one-dose screen, 48 h (100 = growth as untreated, 0 = no growth, -100 = all killed)
conditions: 10 µM unless noted
The panel holds about 83,000 compounds, 20% with a hit somewhere; the sample as a whole holds those more often.
# Lookup of reported growth keyed by entry
Number only, in %; omit the unit.

COc1ccc2c(c1)C(C)Cc1c(Cl)nc(C)nc1N2C (stereo not drawn) ... 11.3
CCOC(=O)c1c(C)nc2c(c1N)CC(=O)N2Cc1ccc(F)cc1 ... 83.5
O=C(O)c1cccc([N+](=O)[O-])c1O ... 78.2
CCOC(=O)n1cc(-c2nonc2-c2cn(C(=O)OCC)c3ccc(Br)cc23)c2ccccc21 ... 93.9
COC(=O)/C=C1/CCC2C3CCC4=CC(=O)C(Br)CC4(C)C3C(=O)CC12C (stereo not drawn) ... 75.1

[Q] Record request: growth value, item CS(=O)(=O)Nc1ccc(C(=O)NC(C(=O)NO)c2ccc(-c3cccc(F)c3)cc2)cc1 (stereo not drawn)
[A] 103

[Q] Okay, and CN(C)CCCn1c2c(c3ccncc3c1=O)C(=O)c1ccccc1-2 ?
[A] -19.8

[Q] What do you get for COc1cccc(CNc2c3ccccc3nc3ccccc23)c1 ?
[A] 40.9

[Q] // query: CN(C)CCCN1c2nc3ccccc3cc2Sc2cc3ccccc3nc21
[A] 43.9

[Q] Quick one: CC(=O)O[C@H]1CC[C@]2(C)[C@H]3CC=C4[C@@H]5CC(C)(C)CC[C@]5(C(=O)N5CCN(CCC#N)CC5)CC[C@@]4(C)[C@]3(C)CC[C@H]2C1(C)C
[A] 12.9

[Q] Also, Cn1cnnc1[S-].[Au+].c1ccc([PH+](c2ccccc2)c2ccccc2)cc1 please.
[A] -12.7

====

In this section, each of the molecules is paired with its reported growth.
System: HS 578T breast
run_description: NCI-60 one-dose screen, 48 h (100 = growth as untreated, 0 = no growth, -100 = all killed)
conditions: 10 µM unless noted
Compounds without any hit were thinned out: in the full panel of roughly 83,000, 20% have a hit.
Answer format: numeric, % implied, no suffix.

Below are worked cases with known answers.
CCOP(=O)(OCC)Oc1ccc(Sc2ccc(OP(=O)(OCC)OCC)cc2)cc1 ... 109
CCC1([N+](=O)[O-])COP(=O)(NCc2cccnc2)OC1 (centres undefined) ... 107
CN1C(=O)NC(=O)C(N=Nc2ccc(Cl)cc2)C1=O (centres undefined) ... 114
CC1(C)CC2(CC(C)(C)c3cc(O)c(O)cc32)c2cc(O)c(O)cc21 ... 89.2
O=C1C=CC(=O)C2C1C1(Cl)C(Cl)=C(Cl)C2(Cl)C1(Cl)Cl (centres undefined) ... 58.2
O=C(CC1(O)C(=O)Nc2ccc(F)cc21)c1ccc(C(=O)NCC2CCC3(CC2)OOC2(CCCCC2)OO3)cc1 (centres undefined) ... 73.8
Cc1ccccc1O ... 132
Cc1cc([N+](=O)[O-])c(Cl)cc1NS(=O)(=O)c1ccccc1 ... 72.5

[Q] HS 578T breast / growth / O=S(=O)(c1ccc(Cl)cc1)C(Cl)(Cl)Cl : value?
[A] 55.8

[Q] // repeat for Nc1cccc2c1Oc1ccccc1O2 and report
[A] 112

[Q] What do you get for CC(C)C1c2ccc(O)cc2Oc2nc(N)c(C#N)c(N)c21 (centres undefined) ?
[A] 91.4

[Q] Please do the same for COc1ccc(/C=C\c2cc(OC)c(OC)c(OC)c2)cc1N/C=C\C(=O)c1c[nH]c2ccccc12 as well.
[A] 37.5

[Q] What do we get for CO[C@@H]([CH2][Hg][S]C#N)[C@@H]([CH2][Hg][S]C#N)OC ?
[A] 98.6
